Molecular target: Trica5-HT1 (Tribolium castaneum, UniProt R9ULB8)
Sequence (R9ULB8 entry or part of it): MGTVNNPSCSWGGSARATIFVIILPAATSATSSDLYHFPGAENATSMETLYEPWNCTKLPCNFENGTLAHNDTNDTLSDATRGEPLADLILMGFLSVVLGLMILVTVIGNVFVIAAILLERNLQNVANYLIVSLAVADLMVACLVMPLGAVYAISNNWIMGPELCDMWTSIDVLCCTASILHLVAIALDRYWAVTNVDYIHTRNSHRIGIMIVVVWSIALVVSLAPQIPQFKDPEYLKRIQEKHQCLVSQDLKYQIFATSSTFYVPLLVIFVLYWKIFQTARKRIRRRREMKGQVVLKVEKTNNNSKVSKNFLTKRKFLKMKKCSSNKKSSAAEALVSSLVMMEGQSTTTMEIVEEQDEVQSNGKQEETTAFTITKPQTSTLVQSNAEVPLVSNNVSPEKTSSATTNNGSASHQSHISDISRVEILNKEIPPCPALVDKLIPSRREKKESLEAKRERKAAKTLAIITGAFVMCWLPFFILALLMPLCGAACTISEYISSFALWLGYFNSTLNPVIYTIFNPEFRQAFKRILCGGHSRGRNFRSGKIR
Test: Aequorin-luminescence assay, antagonist inhibition of 5-HT mediated activation of Trica5-HT1 in CHO-WTA11 cells
Assay type: cell-based
Conditions: 5-HT 100 nM; antagonist 10 nM to 1 mM
Where a name gives a salt, the structure may show the parent alone.
PROPERTY: inhibition of 5-HT induced responses (words)

{"MOLECULE": "CC(C)(C)[C@]1(O)CCN2C[C@H]3c4ccccc4CCc4cccc(c43)[C@@H]2C1 [butaclamol, (+)-butaclamol hydrochloride]", "MEASURED ON": "Trica5-HT1 (Tribolium castaneum, UniProt R9ULB8)", "READING": "no detectable inhibition"}
{"MOLECULE": "O=C(c1ccc(F)cc1)C1CCN(CCn2c(=O)[nH]c3ccccc3c2=O)CC1 [ketanserin, ketanserin (+)-tartrate]", "MEASURED ON": "Trica5-HT1 (Tribolium castaneum, UniProt R9ULB8)", "READING": "no detectable inhibition"}
